Please go through the items and note down their Kb.
Molecular target: histamine H3 receptor (Homo sapiens, UniProt Q9Y5N1)
Construct: expressed in transfected cells; host or cells: CHO K1 cells carrying pSwitch, transfected with pGeneH3 and induced with mifepristone; clone 3H3; membranes
Sequence (Q9Y5N1 whole entry): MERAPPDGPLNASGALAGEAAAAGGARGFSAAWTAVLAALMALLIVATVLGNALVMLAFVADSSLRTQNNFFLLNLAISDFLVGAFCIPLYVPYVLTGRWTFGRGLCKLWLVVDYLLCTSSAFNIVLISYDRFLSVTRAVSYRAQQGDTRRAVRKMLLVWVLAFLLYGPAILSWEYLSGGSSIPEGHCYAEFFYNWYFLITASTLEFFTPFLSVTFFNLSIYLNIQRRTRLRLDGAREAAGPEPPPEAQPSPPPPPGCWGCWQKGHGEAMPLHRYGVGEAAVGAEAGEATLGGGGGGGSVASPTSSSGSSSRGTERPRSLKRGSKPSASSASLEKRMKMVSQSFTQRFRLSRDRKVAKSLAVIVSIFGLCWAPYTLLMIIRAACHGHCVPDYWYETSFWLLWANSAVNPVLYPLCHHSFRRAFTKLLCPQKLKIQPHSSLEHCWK
Test: Histamine H3 functional antagonist assay ([35S]GTPγS SPA, membranes of CHO K1 cells expressing human H3)
Format: biochemical
Details: functional antagonism of histamine (0.3 μM) stimulated [35S]GTPγS binding, membranes of CHO K1 cells with human histamine H3
Counter-ions that a name gives are not always drawn.

The cases that follow already have their Kb on record.
Cc1noc(-c2ccc(N3CCC(C(=O)N4CCCN(C(C)C)CC4)CC3)cc2)n1	< 3.16 nM
CC(C)N1CCCN(C(=O)C2CCN(c3ccc(C#N)cc3)CC2)CC1	< 1 nM
N#Cc1ccc(N2CCC(C(=O)N3CCCN(C4CCC4)CC3)CC2)cc1	< 1 nM

Provide each entry's Kb from the list below.
1. CC(C)N1CCN(C(=O)C2CCN(c3ccc(C#N)cn3)CC2)CC1 [Example E1, hydrochloride]
2. O=C(C1CCN(c2ccc(C(F)(F)F)nc2)CC1)N1CCCN(C2CCC2)CC1

Result:
< 3.16 nM
< 3.16 nM

Cited source for all entries: patent US7592347B2
